observationType: MDR1-MDCK efflux ratio

P: C[C@@H]1Cc2ccccc2N1C(=O)Cn1nc(-c2cccc3ncccc23)oc1=O
Q: Cc1ccccc1Cn1c(=O)c2c(nc3n(-c4ccccc4O)c(C)cn23)n(C)c1=O
R: Cc1ccc2c(c1)cc(C(=O)N1CCOC(C(=O)N3CCc4ccccc4C3)C1)n2C (stereo not drawn)
S: CCc1c(C(=O)NCCc2ccc(N3CCCCC3)cc2)[nH]c2ccc(Cl)cc12
T: COc1cc(F)ccc1-c1ncnc(Nc2cccc(C[S@@](C)(=N)=O)c2)n1
Sort the entries above by MDR1-MDCK efflux ratio, smallest first. # the answer lists labels in the order requested S, P, R, Q, T

a: Cn1nccc1CC1CCN(C2CCCC2)CC1
b: CS(=O)(=O)NCc1cc2n(n1)CCN(C1Cc3ccccc3C1)C2
c: O=C(CCc1cccs1)Nc1ccc(N2CCOCC2)cn1
d: CNCc1cc(N(C)C)nc(C2CCCN2C(=O)c2oc3ccc(Cl)cc3c2C)n1 (stereo not drawn)
Rank the items in ascending order with respect to MDR1-MDCK efflux ratio. Provide the labels, sequenced as the question asks. c, a, b, d
(c: 0.618, a: 0.94, b: 2.92, d: 117)

* * *

observationType: intrinsic clearance, human liver microsomes (mL/min/kg)

# compound, quantitativeResult
measured = [
    ("CCN(Cc1nc2cc(Cl)ccc2c(=O)[nH]1)C(=O)COc1ccccc1Cc1ccccc1", 225),
    ("O=C(CCc1ccc(Cl)cc1)N1CCCC(c2n[nH]cc2-c2cccc(F)c2)C1 (stereo not given)", 930),
    ("CC(=O)N(C)[C@H]1CC2(CCN(C(=O)COc3cc(C)c(Cl)c(C)c3)CC2)OC[C@]1(C)O", 78.1),
    ("CN(C)c1ccc(Cn2c(=O)[nH]c3ccccc3c2=O)cn1", 9.13),
]

I: CC(=O)N1CCN(CCNC(=O)N2CCc3sccc3C2)CC1
II: CNCc1cc(N(C)C)nc(C2CCCN2C(=O)c2oc3ccc(Cl)cc3c2C)n1 (stereo not given)
III: O=C(c1cccs1)N1CCCC(C(=O)N2Cc3ccccc3C(c3ccccc3)C2)C1 (stereo not given)
hey, can you rank those compounds up there by intrinsic clearance, human liver microsomes? biggest number first please Sort the labels as requested; that list is your answer. III, II, I

* * *

observationType: intrinsic clearance, human liver microsomes (mL/min/kg)

Sample records with intrinsic clearance, human liver microsomes:
# smilesRepresentation, quantitativeResult
measured = [
    ("CCOc1cccc(CNCCc2c[nH]c3ccccc23)c1", 90.8),
    ("CC(C)(C)C(=O)N1CCC(Cc2ccc(-c3cccs3)cc2)(C(=O)N2CCCC2)CC1", 223),
    ("COc1ccc(CC(=O)Nc2ccc(F)nc2)cc1", 16.5),
]

a: CN1C(=O)N(CC(=O)Nc2ccccc2-c2ccccc2)C(=O)C1(C)C
b: Cc1cccc(OC[C@@]2(O)CN(C[C@]3(O)CC[C@@H](C(C)(C)C)CC3)CC[C@@H]2O)c1
Endpoint returns the identifier whose intrinsic clearance, human liver microsomes is numerically larger, either a or b . Answer with the label corresponding to your selection. b
(b: 234 mL/min/kg, a: 21.4 mL/min/kg)

* * *

observationType: MDR1-MDCK efflux ratio

Examples from the recorded data:
# compound, MDR1-MDCK efflux ratio
data = [
    ("COCc1ccccc1CNc1ccc2cc(C#N)ccc2n1", 0.442),
    ("CCc1cc(CNC(=O)NC2CCN(CC3CCCCC3)CC2)on1", 26.6),
    ("Cc1sc2nc(CN3CCOCC3)nc(N3CCN(c4ccncc4)CC3)c2c1C", 28.9),
    ("CC1CCC(O)(CSc2nnnn2C2CC2)CC1 (stereo not given)", 0.616),
]

I: CS(=O)(=O)N1CCc2c(cccc2NC(=O)c2ccc(F)cc2)C1
II: Cc1cc2ccccc2n1CC(=O)N1CCc2ccc(O)cc2C1
III: Cc1ccc(C(=O)NCCc2csc(C)n2)cn1
IV: CN(CC(=O)Nc1ccncc1)C1CCCC1
// ranking: key=MDR1-MDCK efflux ratio, reverse=True Answer with the labels in sequence, matching the requested order. I, II, III, IV
(I: 6.4, II: 2.59, III: 0.918, IV: 0.484)

A: CS(=O)(=O)NC[C@H]1CC[C@H](Nc2nc3c(s2)CCSc2ccccc2-3)CC1
B: CC(=O)c1ccc(OCCCCN2CCCC2)cc1
Which numeric MDR1-MDCK efflux ratio is bigger, that of A or that of B ? Label of pick, please. A
(A: 1.81, B: 0.895)

P: Cc1ccsc1C(=O)NCc1ccc2c(c1)OCCCO2
Q: C#CCNC(=O)c1cc(C(C)C)nn1CC
Return label of the item with the larger MDR1-MDCK efflux ratio. Candidates: P , Q . Record your answer as the label of the chosen record. Q
(Q: 0.855, P: 0.582)

* * *

observationType: intrinsic clearance, rat liver microsomes (mL/min/kg)

# compound, quantitativeResult
measured = [
    ("O=c1c2cccnc2ncn1[C@H]1CCCc2ccccc21", 119),
]

P: COCC(=O)Nc1nc(C)c(C)s1
Q: O=C(CSC1CCCC1)NCCn1nc2c(cc1=O)CCCC2
R: COc1ccc(COc2ccc(Cc3cnc(N)nc3N)cc2OC)cc1
S: C=C(C)COc1ccc(C(=O)NCCc2cn3ccccc3n2)cc1
Please put the entries in order of rising intrinsic clearance, rat liver microsomes. Note for the reader: the ranking is given by listing the labels in the order requested. P, R, Q, S

* * *

observationType: intrinsic clearance, human liver microsomes (mL/min/kg)

# smilesRepresentation, quantitativeResult
data = [
    ("CCC(CC)NC(=O)c1ccc2ncsc2c1", 7.3),
]

I: Cc1ncc(-c2ccc(C)c(S(=O)(=O)NCc3cnn(C)c3C)c2)o1
II: C=CC(=O)N(C)CCOc1c(N)ncnc1-c1cc(F)cc(NC(=O)c2ccc(C3CC3)cc2F)c1C
Which numeric intrinsic clearance, human liver microsomes is bigger, that of I or that of II ? Use the label to indicate which entry you chose. I

P: CCCNC(=O)c1ccnc(N(C)C)c1
Q: Cc1nccc(-c2cccc(NCc3cc(C)on3)c2)n1
Short answer wanted: higher intrinsic clearance, human liver microsomes, P or Q ? Let me know the label of the one you choose. Q

* * *

observationType: intrinsic clearance, rat liver microsomes (mL/min/kg)

# smilesRepresentation, quantitativeResult
data = [
    ("CN1CCN(c2ccc(NC(=O)c3ccc(S(=O)(=O)N4CCCc5ccccc54)cc3)cc2)CC1", 727),
]

1: Fc1ccc(F)c2c(NCc3ccc(N4CCOCC4)nc3)ccnc12
2: Cc1cccc(NCC2CCN(C(=O)c3ccccc3)CC2)n1
3: CCN(C/C=C\c1ccc(C2CCCCC2)c(Cl)c1)C1CCCCC1
4: CC1(c2ccn[nH]2)CCN(Cc2ccco2)CC1
Sort entries by intrinsic clearance, rat liver microsomes from minimum to maximum value. The labels, placed in the requested order, form the answer. 4, 1, 3, 2
(4: 76.4 mL/min/kg, 1: 151 mL/min/kg, 3: 591 mL/min/kg, 2: 1110 mL/min/kg)

a: O=C(Nc1ccccc1)N1CCCc2cnc(N3CCOCC3)nc21
b: CNC(=O)c1sc2ncccc2c1[C@H]1CC[C@H](CNC(=O)COc2ccccc2)CC1
# returns the entry with the larger intrinsic clearance, rat liver microsomes; inputs a and b Identify your selection by its label. b

a: COc1ccccc1C(=O)Nc1ccc2cc[nH]c2c1
b: Cc1nc(COc2ccc(F)cc2)sc1C(=O)N1CCC(C)CC1
c: CC(=O)n1c(/C=C2/N=C(c3ccc(F)cc3)OC2=O)cc2ccccc21
Order these by intrinsic clearance, rat liver microsomes, descending, and give the full ranking. // format: requested-order list of labels b, a, c

* * *

observationType: MDR1-MDCK efflux ratio

Recorded MDR1-MDCK efflux ratio, per entry:
# compound, MDR1-MDCK efflux ratio
records = [
    ("c1ccc2nc(NCCn3ccnc3)cnc2c1", 3.5),
    ("O=C(O)c1cnn(-c2nc3cc(Cl)c(OC(F)(F)F)cc3[nH]2)c1", 1.05),
    ("Cc1ccc(C)c(-n2c(S)nnc2-c2ccc(O)cc2)c1", 31.1),
    ("O=C1NCCN(C(=O)c2ccc3nccn3c2)C1c1ccccc1C(F)(F)F (stereo unspecified)", 7.15),
]

I: COc1ccc2nc(NCc3cnn(C)c3)ccc2c1
II: CC(C)Cc1cc(CN2CCN(S(=O)(=O)N3CCOCC3)CC2)n[nH]1
Problem: Given the entries I and II , determine which has the lower reported MDR1-MDCK efflux ratio. // output: label of the selected item I

* * *

observationType: intrinsic clearance, rat liver microsomes (mL/min/kg)

As a guide, the following entries are already answered.
# molecule, quantitativeResult
data = [
    ("O=C(Nc1cccnc1)c1ccnc(NC(=O)C2CC2)c1", 27.3),
    ("CC(=O)N1CCC(C(=O)Nc2nccs2)(c2ccccc2)CC1", 236),
    ("NC(=O)c1ccc(Oc2ccc(C(=O)N3CCCCCC3)cc2)cc1", 82.3),
    ("CCCn1cc(NC(=O)Nc2ccc(N3CCSCC3)cc2)cn1", 808),
]

a: CN1CCN(c2ccc(NC(=O)c3ccccc3Cl)nc2)CC1
b: CCCC(=O)Nc1ccc(-n2cccn2)nc1
c: CC(C(=O)Nc1ccccc1)N1CCCC(c2nc3ccccc3o2)C1 (centres undefined)
Order by intrinsic clearance, rat liver microsomes, ascending. To answer, write out the labels according to the requested order. b, a, c

1: O=C(CSc1nnc(-c2cccs2)[nH]1)N1CCCCCC1
2: COc1cc2c(cc1OC)CN(C(=O)C1CCCN(S(=O)(=O)c3cccs3)C1)CC2 (centres undefined)
Given the listed records, identify the one among 1 and 2 with higher intrinsic clearance, rat liver microsomes. API: response body contains the label of the selected item. 2
(2: 707 mL/min/kg, 1: 370 mL/min/kg)

a: CN1C(N)=N[C@](C)(c2cc(NC(=O)c3ccc(F)cn3)ccc2F)CS1(=O)=O
b: CN(CC1(O)CCCC1)c1ncccn1
// pick min by intrinsic clearance, rat liver microsomes: a , b Write down the label of the entry you select. a
(a: 82.3 mL/min/kg, b: 132 mL/min/kg)
